Each recorded value in this set is attributed to PubChem BioAssay (NCI).

Listed below: TGI values for each entry.
Tested on: SNB-78 CNS
Assay: NCI tumour cell line growth inhibition, 48 h

{"COMPOUND": "C=C(CC(NC(=O)c1ccc(C(CC)Cc2cnc3nc(N)nc(N)c3n2)cc1)C(=O)O)C(=O)O (stereo unspecified)", "ENDPOINT LABEL": "TGI", "READING": "> 100 µM"}

TGI recorded for this compound, Cc1nn[n-]n1.N.N.N.N.N.[Cl-].[Co+3] , is > 100 µM

---

System: HT29 colon
Test: NCI tumour cell line growth inhibition, 48 h
Recorded TGI for the following molecules

{"MOLECULE": "O=[N+]([O-])c1ccc2c(c1)N([O-])C1(CCCCC1)[N+]2=O", "ENDPOINT LABEL": "TGI", "READING": "43.3 µM"}
{"MOLECULE": "Cc1ccc(/C=N/n2c(-c3ccc(C)cc3)n[nH]c2=O)cc1", "ENDPOINT LABEL": "TGI", "READING": "> 100 µM"}
{"MOLECULE": "O=S(=O)(O)c1cc(N=Nc2c(O)ccc3ccccc23)ccc1/C=C/c1ccc(N=Nc2c(O)ccc3ccccc23)cc1S(=O)(=O)O", "ENDPOINT LABEL": "TGI", "READING": "> 100 µM"}

Reading of TGI for CC(C)(C)OC(=O)NC1CC2(C=C(Br)C(=O)C(Br)=C2)OC1=O (configuration not stated) with HT29 colon: 18.6 µM

Simply: NCCSSCCN , HT29 colon, TGI = > 100 µM

Value (TGI, HT29 colon) for record O=C1CC2CC3OC3[C@H]3c4cc5c(cc4C(=O)N1C23)OCO5 (some centres not stated) = > 100 µM
